# SYSTEM_TESTED: 5-HT2C edited (accession number AAF35842.1) (Homo sapiens, UniProt P28335, I156V/I160V/N158S)
# PROTOCOL_TEXT: biochemical
# Sequence (P28335 whole entry I156V/N158S/I160V, looked up): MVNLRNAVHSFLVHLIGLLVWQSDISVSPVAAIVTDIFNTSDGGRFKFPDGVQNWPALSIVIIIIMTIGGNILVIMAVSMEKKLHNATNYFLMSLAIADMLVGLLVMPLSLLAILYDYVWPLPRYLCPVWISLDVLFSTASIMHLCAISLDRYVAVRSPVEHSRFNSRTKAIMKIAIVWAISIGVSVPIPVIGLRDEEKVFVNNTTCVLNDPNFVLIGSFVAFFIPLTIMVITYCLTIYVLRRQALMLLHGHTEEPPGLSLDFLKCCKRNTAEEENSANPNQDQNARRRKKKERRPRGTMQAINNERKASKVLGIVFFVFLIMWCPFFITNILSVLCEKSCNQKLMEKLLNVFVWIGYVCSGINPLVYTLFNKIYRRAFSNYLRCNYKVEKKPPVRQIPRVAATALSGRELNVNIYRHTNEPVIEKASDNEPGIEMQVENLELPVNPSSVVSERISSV
MEASUREMENT_NAME: IC50

Please review the entries below; each comes with its answer.
Cc1ccc2c3c([nH]c2n1)CCN(C1COC1)CC3 > 10000 nM
Brc1ccc2c3c([nH]c2n1)CCN(C1COC1)CC3 101 to 1000 nM
COc1ccc2[nH]c3c(c2n1)CCN(C)CC3 10 to 100 nM
COc1ccc2c3c([nH]c2n1)CCN(C)CC3 1000 to 10000 nM
CN1CCc2[nH]c3ncccc3c2CC1 10 to 100 nM

# input for lookup
The reported IC50 of the compound c1cnc2[nH]c3c(c2c1)CCNCC3 was 10 to 100 nM

---

The following molecules are listed with their measured EC50 values.
# SYSTEM_TESTED: 5-HT2C edited (accession number AAF35842.1) (Homo sapiens, UniProt P28335, I156V/I160V/N158S)
# PROTOCOL_TEXT: cell-based
# Sequence (P28335 33-458 I156V/N158S/I160V limits assumed): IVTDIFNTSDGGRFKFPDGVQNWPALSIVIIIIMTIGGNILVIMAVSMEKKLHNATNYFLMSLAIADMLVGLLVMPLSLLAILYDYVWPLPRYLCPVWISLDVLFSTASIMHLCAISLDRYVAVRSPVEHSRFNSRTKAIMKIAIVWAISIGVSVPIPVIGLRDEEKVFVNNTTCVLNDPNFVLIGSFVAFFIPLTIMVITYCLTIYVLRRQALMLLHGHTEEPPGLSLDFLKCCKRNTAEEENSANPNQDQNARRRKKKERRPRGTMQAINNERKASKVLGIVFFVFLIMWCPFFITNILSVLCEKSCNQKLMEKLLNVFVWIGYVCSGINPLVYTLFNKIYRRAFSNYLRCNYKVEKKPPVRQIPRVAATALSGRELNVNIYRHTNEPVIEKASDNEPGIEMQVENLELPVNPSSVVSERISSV

Please review the entries below; each comes with its answer.
Clc1cnc2[nH]c3c(c2c1)CCN(C1COC1)CC3 101 to 1000 nM
Brc1ccc2c3c([nH]c2n1)CCN(C1COC1)CC3 101 to 1000 nM
COc1ccc2c3c([nH]c2n1)CCN(C1COC1)CC3 > 10000 nM
Clc1cnc2[nH]c3c(c2c1)CCNCC3 < 10 nM
Brc1ccc2c3c([nH]c2n1)CCNCC3 < 10 nM
COc1ccc2c3c(n(C)c2n1)CCN(C1COC1)CC3 101 to 1000 nM
COc1ccc2c3c([nH]c2n1)CCNCC3 10 to 100 nM
CN1CCc2[nH]c3ncccc3c2CC1 10 to 100 nM
Cc1ccc2c3c([nH]c2n1)CCN(C1COC1)CC3 > 10000 nM
COc1cc2c3c([nH]c2cn1)CCN(C)CC3 > 10000 nM

The reported EC50 of the molecule Cn1c2c(c3cc(Cl)cnc31)CCNCC2 was 10 to 100 nM

The reported EC50 of the molecule Cc1ccc2c3c(n(C)c2n1)CCN(C1COC1)CC3 was > 10000 nM

The reported EC50 of the molecule Cn1c2c(c3cccnc31)CCN(C1COC1)CC2 was 1000 to 10000 nM

---

# SYSTEM_TESTED: 5-HT2C edited (accession number AAF35842.1) (Homo sapiens, UniProt P28335, I156V/I160V/N158S)
# PROTOCOL_TEXT: biochemical
The following molecules are listed with their measured IC50 values.

Please review the entries below; each comes with its answer.
CN1CCc2[nH]c3nc(Br)ccc3c2CC1 101 to 1000 nM
Cn1c2c(c3cccnc31)CCN(C1COC1)CC2 1000 to 10000 nM
Cn1c2c(c3cccnc31)CCNCC2 10 to 100 nM
Cc1ccc2c3c(n(C)c2n1)CCN(C1COC1)CC3 1000 to 10000 nM
Cn1c2c(c3cc(Cl)cnc31)CCN(C1COC1)CC2 1000 to 10000 nM
Cc1ccc2c3c(n(C)c2n1)CCN(C)CC3 101 to 1000 nM

The reported IC50 of the molecule COc1ccc2c3c([nH]c2n1)CCNCC3 was 101 to 1000 nM
